Hi! I'm sharing some IC50 results obtained with Bifunctional epoxide hydrolase 2 (Homo sapiens).
Sequence (P34913 whole entry): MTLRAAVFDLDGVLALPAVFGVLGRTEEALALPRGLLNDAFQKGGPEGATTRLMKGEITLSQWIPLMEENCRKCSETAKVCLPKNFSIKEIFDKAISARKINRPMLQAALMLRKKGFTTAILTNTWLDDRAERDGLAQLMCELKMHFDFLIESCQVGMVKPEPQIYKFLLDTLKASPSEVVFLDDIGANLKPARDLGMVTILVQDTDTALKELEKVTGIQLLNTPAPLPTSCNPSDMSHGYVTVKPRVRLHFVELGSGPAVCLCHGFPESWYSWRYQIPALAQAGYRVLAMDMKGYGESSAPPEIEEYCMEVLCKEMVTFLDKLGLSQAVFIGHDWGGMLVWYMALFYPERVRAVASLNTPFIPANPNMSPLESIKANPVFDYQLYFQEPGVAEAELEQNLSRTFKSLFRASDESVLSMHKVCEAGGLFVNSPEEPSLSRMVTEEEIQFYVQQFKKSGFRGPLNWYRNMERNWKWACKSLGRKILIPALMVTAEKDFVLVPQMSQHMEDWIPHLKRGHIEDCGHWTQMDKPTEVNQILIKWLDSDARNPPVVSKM
Answers are plain numbers, in nM.

Observe how each entry below is paired with its result.
>  <Compound>
CC(NC(=O)Nc1ccc(C(=O)NC2CCCCC2)cc1)C12CC3CC(CC(C3)C1)C2 (stereo not given)

>  <IC50, nM>
217

$$$$
>  <Compound>
CC(C)CNC(=O)c1ccc(NC(=O)NC23CC4CC(CC(O)(C4)C2)C3)cc1

>  <IC50, nM>
949

$$$$
>  <Compound>
CC(C)CNC(=O)CCC(=O)NC(C)C12CC3CC(CC(C3)C1)C2 (stereo not given)

>  <IC50, nM>
50.8

$$$$

# per-item lookup of IC50; items listed below
1. CC12CC3CC(C)(C1)CC(NC(=O)/C=C/C(=O)NC1CCCCC1)(C3)C2
2. CC12CC3CC(C)(C1)CC(NC(=O)/C=C\C(=O)N1CCCCC1)(C3)C2
3. O=C(Nc1ccc(C(=O)NC2CCCCC2)cc1)NC12CC3CC(CC(O)(C3)C1)C2
4. CC12CC3CC(C)(C1)CC(NC(=O)c1ccc(C(=O)N4CCCCC4)cc1)(C3)C2
5. CC(C)CNC(=O)c1ccc(NC(=O)NC2C3CC4CC2CC(O)(C4)C3)cc1 (stereo not given)
6. CC12CC3CC(C)(C1)CC(NC(=O)CCCC(=O)NC1CCCCC1)(C3)C2
7. O=C(Nc1ccc(C(=O)N2CCCCC2)cc1)NC1C2CC3CC1CC(O)(C3)C2 (stereo not given)

Result ::
[24400, 21500, 796, 26400, 249, 1590, 217]

Dear colleague, could you please provide IC50 for the compounds listed below?
1. CC12CC3CC(C)(C1)CC(NC(=O)c1ccc(C(=O)NC4CCCCC4)cc1)(C3)C2
2. CC(C)CNC(=O)/C=C/C(=O)NC12CC3CC(C)(CC(C)(C3)C1)C2
3. CC(C)CNC(=O)CCCC(=O)NC(C)C12CC3CC(CC(C3)C1)C2 (stereo not given)

Result ::
1: 6290; 2: 9620; 3: 7320

For the 6 compounds below, give their IC50 values.
1. O=C(Nc1ccc(C(=O)NC2CCCCC2)cc1)NC1C2CC3CC(C2)CC1C3 (stereo not given)
2. CC(C)CNC(=O)c1ccc(NC(=O)NC(C)C23CC4CC(CC(C4)C2)C3)cc1 (stereo not given)
3. O=C(Nc1ccc(C(=O)N2CCCCC2)cc1)NC1C2CC3CC(C2)CC1C3 (stereo not given)
4. CC(C)CNC(=O)CCCC(=O)NC1C2CC3CC1CC(O)(C3)C2 (stereo not given)
5. CC(C)CNC(=O)CCC(=O)NC12CC3CC(C)(CC(C)(C3)C1)C2
6. O=C(Nc1ccc(C(=O)NC2CCCCC2)cc1)NC1C2CC3CC1CC(O)(C3)C2 (stereo not given)

Result ::
1: 1.4; 2: 59.8; 3: 0.4; 4: 41.6; 5: 18900; 6: 493

Provide each entry's IC50 from the list below.
1. O=C(Nc1ccc(C(=O)N2CCCCC2)cc1)NC12CC3CC(CC(O)(C3)C1)C2
2. CC12CC3CC(C)(C1)CC(NC(=O)Nc1ccc(C(=O)NC4CCCCC4)cc1)(C3)C2
3. CC(C)CNC(=O)CCCC(=O)NC12CC3CC(C)(CC(C)(C3)C1)C2

Result ::
1. 120
2. 2.3
3. 6230
